test system: MDA-MB-435; test: NCI tumour cell line growth inhibition, 48 h
Provide the recorded TGI for the entries that follow.

The compound listed as `Cc1nnc(-c2ccc(C)c(-c3ccc(C(=O)Nc4cccc(C#N)c4)cc3)c2)o1` has a reported TGI of > 25 µM

The compound listed as `CCOc1cccc(/C=N/NC(=O)c2cccc(Nc3ccnc(C(F)(F)F)c3)c2)c1O` has a reported TGI of > 51.2 µM

The compound listed as `O=C(O)CCCc1ccc2ccc3ccccc3c2c1` has a reported TGI of > 100 µM

The compound listed as C=C(C)C1CC2(C)C(C)CC(O)CC2C(OC(=O)C=C(C)C)C1O (stereo not given) has a reported TGI of > 100 µM

The compound listed as CS(=O)(=O)C(C#N)c1nc2ccccc2nc1Cl (stereo not given) has a reported TGI of > 100 µM

The compound listed as `COc1cc2c(cc1O)c(O)cc1c3cc(OC)c(OC)cc3c[n+](C)c21` has a reported TGI of 30.9 µM

The compound listed as `O=S(=O)(O)c1ccc(N=Nc2ccc3c(S(=O)(=O)O)cccc3c2O)c2ccccc12` has a reported TGI of > 100 µM

The compound listed as `CN(c1ccc(NC(=O)Nc2c(Cl)cccc2Cl)cc1)c1ccnc(Nc2cccc(CS(C)(=O)=O)c2)n1` has a reported TGI of 10.9 µM

The compound listed as `COc1ccc2c(c1)/C(=C\c1c(Cl)[nH]c3cc(C)c(OC)cc13)C(=O)N2` has a reported TGI of 0.596 µM

The compound listed as `Cc1ccc2c(ccc(/C=C/c3ccc(O)c4ncccc34)[n+]2C)c1` has a reported TGI of > 52.1 µM

* * *

Provide the recorded TGI for the entries that follow.
test system: U251 CNS; experiment: NCI tumour cell line growth inhibition, 48 h

Measured TGI (U251 CNS), entry `COc1ccc(C=O)cc1O[Si](C)(C)C(C)(C)C` : > 100 µM

Measured TGI (U251 CNS), entry `O=c1[nH]c2cc(C(F)(F)F)ccc2nc1C(F)(F)F` : > 100 µM

Measured TGI (U251 CNS), entry `O=C(O)c1ccc(CN2CCC(CN[C@@H]3C[C@H]3c3ccccc3)CC2)cc1` : > 100 µM

Measured TGI (U251 CNS), entry `O=C(O)CCCc1ccc2ccc3ccccc3c2c1` : > 100 µM

Measured TGI (U251 CNS), entry CCC1=CCN(c2cc(C)ccn2)OC1c1ccc(OC)cc1 (stereo not drawn) : 44.1 µM

Measured TGI (U251 CNS), entry `O=C1NC(=S)N/C1=C\c1cccs1` : > 100 µM

Measured TGI (U251 CNS), entry Cc1ccc(C2=C(c3ccc(C)cc3)C3(c4ccc(C)cc4)C4C(=O)OC(=O)C4C2(c2ccc(C)cc2)S3=O)cc1 (stereo not drawn) : 24.9 µM

Measured TGI (U251 CNS), entry NC(CCCC(N)P(=O)(O)O)P(=O)(O)O (stereo not drawn) : > 100 µM

Measured TGI (U251 CNS), entry C=C1c2c(C)nn(-c3ccc(C#CCOC4OC(CO)C(O)C(O)C4O)cc3)c2N(C)C23C[C@H]1C1(C)c4c(C)nn(-c5ccc(C#CCOC6OC(CO)C(O)C(O)C6O)cc5)c4N(C)C(C)(C[C@H]12)C3 (stereo partly drawn) : 2.59 µM

Measured TGI (U251 CNS), entry `CC1(C)N/C(=C\[N+](=O)[O-])C(C)(C)N1O` : > 10 µM

Measured TGI (U251 CNS), entry `CC(C)C(O)(C(C)C)C(C)C` : > 100 µM

Measured TGI (U251 CNS), entry `C#CCn1c(=O)c(I)cn(/C(=C/C(=O)OCC)C(=O)OCC)c1=O` : 32.1 µM

Measured TGI (U251 CNS), entry `CCC(CC)NC1=C(NC(C)=O)C(=O)c2ccccc2C1=O` : > 50 µM
